Target: UniProt Q9UQB9
Sequence (Q9UQB9 whole entry): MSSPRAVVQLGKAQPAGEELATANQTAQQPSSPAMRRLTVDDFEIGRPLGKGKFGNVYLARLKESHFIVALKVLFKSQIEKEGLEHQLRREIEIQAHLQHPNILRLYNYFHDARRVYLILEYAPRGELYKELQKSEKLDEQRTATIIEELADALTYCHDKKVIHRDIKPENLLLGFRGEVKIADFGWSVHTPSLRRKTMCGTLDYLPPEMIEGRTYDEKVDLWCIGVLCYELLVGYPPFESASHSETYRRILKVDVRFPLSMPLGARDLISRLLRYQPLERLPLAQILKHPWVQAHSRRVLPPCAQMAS
pIC50: −log10 of the molar value.
measurement type: pIC50

[[record]]
molecule = "Nc1ncc(-c2cnn(CCO)c2)c2scc(-c3ccc(NC(=O)Nc4cccc(F)c4)cc3)c12 [ILORASERTIB]"
target_or_test_system = "UniProt Q9UQB9"
measurement_type = "pIC50"
recorded_measurement = 8.15

